tested-target: UniProt:Q08881
Sequence (Q08881 1-620): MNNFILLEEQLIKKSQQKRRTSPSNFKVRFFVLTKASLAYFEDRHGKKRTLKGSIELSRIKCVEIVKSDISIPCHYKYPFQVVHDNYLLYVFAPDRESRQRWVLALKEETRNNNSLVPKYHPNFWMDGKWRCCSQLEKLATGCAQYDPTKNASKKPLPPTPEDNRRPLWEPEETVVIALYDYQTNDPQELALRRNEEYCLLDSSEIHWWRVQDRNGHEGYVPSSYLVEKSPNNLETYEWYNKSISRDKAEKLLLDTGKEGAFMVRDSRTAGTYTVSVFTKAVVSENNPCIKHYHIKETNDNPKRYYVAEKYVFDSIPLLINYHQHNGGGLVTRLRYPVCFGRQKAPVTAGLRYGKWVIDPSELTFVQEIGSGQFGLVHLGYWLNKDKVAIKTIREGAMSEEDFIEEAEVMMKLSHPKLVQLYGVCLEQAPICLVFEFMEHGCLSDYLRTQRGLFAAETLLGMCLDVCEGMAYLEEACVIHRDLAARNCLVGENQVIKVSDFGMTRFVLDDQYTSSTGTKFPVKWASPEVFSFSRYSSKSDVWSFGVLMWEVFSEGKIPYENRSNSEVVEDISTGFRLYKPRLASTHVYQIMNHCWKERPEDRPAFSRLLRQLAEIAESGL
observed-property: IC50 (nM)

Solved cases (2 shown):
C=CC(=O)N1CCC[C@@H](n2nc(-c3ccc(C(=O)Nc4ccccn4)cc3)c3c(N)nccc32)C1 = 11
C=CC(=O)N1CCC[C@@H](n2nc(-c3ccc(C(=O)Nc4cc(C(F)(F)F)ccn4)cc3)c3c(N)ncc(Cl)c32)C1 = 10.1

(A) C=CC(=O)N1CCC[C@@H](n2nc(-c3ccc(Oc4ccncc4)cc3)c3c(N)ncc(OC)c32)C1
(B) C=CC(=O)N1CCC[C@@H](n2nc(-c3ccc(C(=O)Nc4ccccn4)cc3)c3c(N)ncc(OC)c32)C1
Exercise: Min IC50? A | B Lab log: write the label of the selected item as the result.
Solution: B
(B: 7.78 nM, A: 24.9 nM)
